Target: HLA-A*26:01
Experiment: IEDB peptide-MHC binding, purified MHC/competitive/radioactivity; filed as Kd, often an IC50 or EC50 that approximates it; bounds were set here for any values at or beyond the usual limits of such assays
Settings: source organism: Dengue virus 3 Martinique/1243/1999
The reader will find reported Kd values listed item by item below.
A complete answer gives the number followed by the unit.

{"columns": ["seq", "measured_on", "Kd"],
 "data": [
  ["HTSEHGGRAY", "HLA-A*26:01", "0.163 µM"]
]}

Give the measured Kd for `ETQHGTILI`
12.2 µM

* * *

Target: HLA-B*40:01
Experiment: IEDB peptide-MHC binding, purified MHC/direct/fluorescence; filed as Kd, often an IC50 or EC50 that approximates it; bounds were set here for any values at or beyond the usual limits of such assays
Settings: source organism: Influenza A virus (A/tern/Australia/1/04(H2N5))
parameter_measured: Kd

Tell me measured Kd for `LLTEVETYV` please.
≥ 20 µM

* * *

Molecular target: HLA-B*39:01
Assay: IEDB peptide-MHC binding, purified MHC/direct/fluorescence; filed as Kd, often an IC50 or EC50 that approximates it; bounds were set here for any values at or beyond the usual limits of such assays
Details: source organism: Giardia lamblia ATCC 50803
parameter_measured: pKd
// pKd: -log10(molar conc.)

Specify reported pKd for the sequence shown: `ARADGILRF`
5.59

* * *

Target: HLA-A*11:01
Test: IEDB peptide-MHC binding, purified MHC/direct/fluorescence; filed as Kd, often an IC50 or EC50 that approximates it; bounds were set here for any values at or beyond the usual limits of such assays
Settings: source organism: Marburg virus - Musoke, Kenya, 1980
pKd: −log10 of the molar value.
parameter_measured: pKd

Please give measured pKd of the following entry: `NRWKSWFSY`
≤ 4.70

* * *

Molecular target: HLA-B*58:01
Test: IEDB peptide-MHC binding, purified MHC/direct/fluorescence; filed as Kd, often an IC50 or EC50 that approximates it; bounds were set here for any values at or beyond the usual limits of such assays
Settings: source organism: West Nile virus
pKd: −log10 of the molar value.
parameter_measured: pKd

Report pKd for `FVDVGVSAL`
≤ 4.70

* * *

Target: HLA-B*44:02
Assay: IEDB peptide-MHC binding, purified MHC/competitive/radioactivity; filed as Kd, often an IC50 or EC50 that approximates it; bounds were set here for any values at or beyond the usual limits of such assays
Conditions: source organism: SARS coronavirus Tor2
The entries below are paired with their reported Kd.
# value in µM; strip the unit string

// solved cases for Kd follow
{"columns": ["seq", "measured_on", "Kd, µM"],
 "data": [
  ["DESASKSASV", "HLA-B*44:02", 1.97],
  ["RELHLSWEVG", "HLA-B*44:02", 0.0083],
  ["KEEILGTVSW", "HLA-B*44:02", 0.00447]
]}

Would you kindly look at the next entry?
Determine from records and report Kd for `MEAQFLYLYA`
0.0563

* * *

Molecular target: HLA-A*02:01
Test: IEDB peptide-MHC binding, purified MHC/direct/fluorescence; filed as Kd, often an IC50 or EC50 that approximates it; bounds were set here for any values at or beyond the usual limits of such assays
Settings: source organism: Bacillus thuringiensis
parameter_measured: pKd
Schema: pKd number; meaning minus log10 of the concentration expressed in molar units.

Identify pKd associated with the sequence `ELGGGFGTL`
5.15

Measured values drawn from the Immune Epitope Database (IEDB) for this set.
